assayed-system: Nuclear receptor subfamily 1 group I member 2 (Homo sapiens)
assay-procedure: Human pregnane X receptor (PXR) small molecule agonists, qHTS assay (AID 1346982); also: nearly all actives have a fitted effect of over 35% in size
condition-summary: PXR-Luc HepG2, CYP3A4 luciferase reporter, 24 h; series mostly up to 92.4 µM
Records with an inconclusive call do not appear. Calls of active or inactive are those of the source. Calls follow the shape of the dose curve; as a rule, active = well fitted activation curve with a large enough effect in the repeat runs; inconclusive = weak or mixed curves; inactive = no such curve, though single readings can be large or run the other way.
Choose one outcome from this list and give only that: yes = active, no = inactive

Ask | Any idea what this test logged for CCN(CC)CCCC(C)Nc1c2ccc(Cl)cc2nc2ccc(OC)cc12 (centres undefined) ?
Reply | yes

Ask | Any idea what this test logged for Nc1ccc(N)c2ccccc12 ?
Reply | yes

Ask | Any idea what this test logged for O=c1c(-c2ccccc2)c1-c1ccccc1 ?
Reply | yes
